Cited source for all entries: ChEMBL document CHEMBL5674860

The entries below are paired with their reported Cell Viability.
# Test system: Colon cancer organoid
# method.notes: Optimized Dual-Glo assay to identify co-culture induced drug vulnerabilities using donated chemical probes and chemogenomics kinase set in O06 CRC organoid and F06 CAF mono and co-culture. […] Cell viability is reported both mono and co-culture models.
# Type: functional, Homo sapiens
# Parameters: dose or concentration left out as unconfirmed
# test.settings: Culture type Co-Culture; Transduced with Renilla-dsRed lentivirus
Lab book: enter the figure in %, no units written.

These recorded examples may help you get a feel for the data.
# compound, Cell Viability, %
measured = [
    ("Cl.Cn1cncc1[C@](O)(COc1ccc(C#N)cc1-c1ccc(OC(F)(F)F)cc1)c1ccc(C#N)cc1", 197.169),
    ("CC(=O)C1=C(C)N(c2cccc(C(F)(F)F)c2)C(=O)N[C@H]1c1ccc(C#N)nc1", 134.225),
    ("Cc1nc(C2CCN(C(=O)c3ccc(OC(F)(F)F)cc3N)CC2)c2ncc(N3CCN(C)CC3)cc2n1", 166.908),
]

Q: Recorded Cell Viability of CC(=O)Nc1c(C(C)=O)c(=O)n(C)c2nc(-c3ccc(Cl)cc3Cl)c(-c3ccc(Cl)cc3)cc12 , please.
Ans: 170.157

Q: Then Cn1cc(CCn2cnc(-c3cnn(C)c3)c2-c2ccc(C#N)cc2)cn1 ?
Ans: 117.261

Q: Then CCS(=O)(=O)c1cc2cc(C[C@](O)(CC(C)(C)c3ccc(F)cc3C(N)=O)C(F)(F)F)[nH]c2cn1 ?
Ans: 297.33

----------
# Test system: Colon cancer organoid
# method.notes: Optimized Dual-Glo assay to identify co-culture induced drug vulnerabilities using donated chemical probes and chemogenomics kinase set in O06 CRC organoid and F06 CAF mono and co-culture. […] Cell viability is reported both mono and co-culture models.
# Assay type: functional, Homo sapiens
# Design: dose or concentration left out as unconfirmed
# test.settings: Culture type Mono-Culture; Transduced with Renilla-dsRed lentivirus
The entries below are paired with their reported Cell Viability.
Lab book: enter the figure in %, no units written.

These recorded examples may help you get a feel for the data.
# compound, measured.parameter, experimental.result
data = [
    ("COc1ccccc1-c1cc(Nc2cccc(CS(N)(=O)=O)c2)ncn1", "Cell Viability", 79.9168),
    ("c1ccc(C2CCN(c3cnc4c(N5CCOCC5)nccn34)CC2)cc1", "Cell Viability", 111.241),
    ("COCCc1ccc(-c2c(C)nc3c(N4CCOCC4)ccnn23)cn1", "Cell Viability", 103.43),
    ("CN1CCN(Cc2ccc(Nc3ncc(Cl)c(Nc4ccccc4S(=O)(=O)N(C)C)n3)cc2)CC1", "Cell Viability", 2.891),
    ("CC1=C(C)C(=O)C(C(C)(C)CC(=O)N(CCCCSC[C@H]2O[C@@H](n3cnc4c(N)ncnc43)[C@H](O)[C@@H]2O)Cc2cccc(-c3ccc(Cl)cc3)c2)=C(C)C1=O", "Cell Viability", 115.82),
]

Q: Recorded Cell Viability of Cc1c(Nc2ccc(S(=O)(=O)N3CCN(C)CC3)cc2F)nc2ccc(Nc3cnn(C4CC4)c3)cn2c1=O , please.
Ans: 116.74

----------
# Tested on: Colon cancer organoid
# method.notes: Optimized Dual-Glo assay to identify co-culture induced drug vulnerabilities using donated chemical probes and chemogenomics kinase set in O06 CRC organoid and F06 CAF mono and co-culture. […] Cell viability is reported both mono and co-culture models.
# Assay type: functional, Homo sapiens
# Design: dose or concentration left out as unconfirmed
# test.settings: Culture type Co-Culture; Transduced with Renilla-dsRed lentivirus
Square brackets hold non-standard residues; d marks the D form. Peptide text beside a SMILES is read from it. Arg(Me) = CNC(=N)NCCC[C@H](N)C(=O)O; d3Pal = N[C@H](Cc1cccnc1)C(=O)O; azaGly = NNC(=O)O
measured.parameter: Cell Viability (%)
Lab book: enter the figure in %, no units written.

# compound, units.symbol, Cell Viability
rows = [
    ("CO[C@@H](C)c1c(Nc2ccc([C@H](N(C)C(=O)C3CCS(=O)(=O)CC3)C(F)(F)F)cc2)cnc2cc(Cl)nn12", "%", 83.5282),
    ("COc1c(C)cc(NC(=O)c2nn(Cc3ccc(F)cc3)c3c2CN(C(=O)c2ccc[nH]2)C[C@]3(C)C(N)=O)cc1C", "%", 112.674),
    ("Cc1nc(-c2cn3c(n2)-c2ccc(-c4cnn(C(C)(C)C(N)=O)c4)cc2OCC3)n(C(C)C)n1", "%", 62.2904),
]

Turning now to a further compound:
Q: Please provide the recorded Cell Viability for CNC(=N)NCCC[C@H](NC(=O)[C@H](CC(C)C)NC(=O)NNC(=O)[C@H](Cc1ccccc1)NC(=O)[C@H](CO)NC(=O)[C@H](CC(N)=O)NC(=O)[C@@H](Cc1cccnc1)NC(=O)[C@H](N)Cc1ccc(O)cc1)C(=O)NCC(N)=O [KISS1-543] (H-[dY][d3Pal]NSF[azaGly]L[Arg(Me)]G-NH2) , tested on Colon cancer organoid.
Ans: 101.302
